System: P388
Assay: Cytotoxicity against mouse P388 cells
Type: functional
Details: read-out: ED50 (the source's name)
Answer each item with its documented EC50.
Answers are plain numbers, in µg/mL.

Some compounds with known EC50 results, for comparison:
- CO[C@H]1[C@@H](OC)C[C@H](C)[C@@H](OC)c2cc(O)cc(c2O)NC(=O)/C(C)=C/C=C\[C@H](OC)[C@@H](OC(N)=O)/C(C)=C/[C@@H]1C [DIHYDRO-HERBIMYCIN A]: 0.022
- CO[C@H]1/C=C\C=C(/C)C(=O)Nc2cc(O)cc(c2O)C[C@@H](C)C[C@H](OC)[C@H](O)[C@@H](C)/C=C(\C)[C@@H]1OC(N)=O: 0.34

Each of the following entries comes with a recorded value; kindly state EC50 for each.
1. CO[C@H]1/C=C\C=C(/C)C(=O)NC2=CC(=O)C=C(C2=O)[C@H](OC)[C@@H](C)C[C@H](OC)[C@H](O)[C@@H](C)/C=C(\C)[C@@H]1OC(N)=O
2. CO[C@H]1[C@@H](OC)C[C@H](C)[C@@H](OC)C2=CC(=O)C=C(NC(=O)/C(C)=C/C=C/[C@H](OC)[C@@H](OC(N)=O)/C(C)=C/[C@@H]1C)C2=O

[0.17, 0.0051]

Taken from ChEMBL document CHEMBL1151121.
